Cited source for all entries: patent US8722729B2

target: hyaluronidase of bovine origin (BTH, Bovine Testis hyaluronidase) (Bos taurus); assay: Assay of hyaluronidase activity (residual HA, HA-ELISA); assay type: biochemical; settings: 50 μM; 0.5 U BTH; read-out: Enzymatic inhibition (mean as a percentage)
endpoint-label: inhibition at 50 µM (%)
Use % as the unit, but write only the number.

compound CCCCC/C=C\C/C=C\CCCCCCCC(=O)OC1=C(O)C(C2COC(C)(C)O2)OC1=O (centres unmarked) [Molecule 5] , inhibition at 50 µM observed: 76

compound CCCCCCCC/C=C\CCCCCCCC(=O)OC1=C(OC(=O)CCCCCCC/C=C\CCCCCCCC)C(C2COC(C)(C)O2)OC1=O (centres unmarked) [Molecule 4] , inhibition at 50 µM observed: 111

compound CCCCC/C=C\C/C=C\CCCCCCCC(=O)OC1=C(OC(=O)CCCCCCC/C=C\C/C=C\CCCCC)C(C2COC(C)(C)O2)OC1=O (centres unmarked) [Molecule 1] , inhibition at 50 µM observed: 76

compound CCCCCCCCCCCCCCCC(=O)OC[C@H](O)[C@H]1OC(=O)C(O)=C1O [6-ascorbyl palmitate, reference compound] , inhibition at 50 µM observed: 71

compound CCCCCCCC/C=C\CCCCCCCC(=O)OC1=C(O)C(C2COC(C)(C)O2)OC1=O (centres unmarked) [Molecule 6] , inhibition at 50 µM observed: 106

----------
Biological target: hyaluronidase of bovine origin (BTH, Bovine Testis hyaluronidase) (Bos taurus, UniProt Q2YDK3)
Sequence (Q2YDK3 1-553): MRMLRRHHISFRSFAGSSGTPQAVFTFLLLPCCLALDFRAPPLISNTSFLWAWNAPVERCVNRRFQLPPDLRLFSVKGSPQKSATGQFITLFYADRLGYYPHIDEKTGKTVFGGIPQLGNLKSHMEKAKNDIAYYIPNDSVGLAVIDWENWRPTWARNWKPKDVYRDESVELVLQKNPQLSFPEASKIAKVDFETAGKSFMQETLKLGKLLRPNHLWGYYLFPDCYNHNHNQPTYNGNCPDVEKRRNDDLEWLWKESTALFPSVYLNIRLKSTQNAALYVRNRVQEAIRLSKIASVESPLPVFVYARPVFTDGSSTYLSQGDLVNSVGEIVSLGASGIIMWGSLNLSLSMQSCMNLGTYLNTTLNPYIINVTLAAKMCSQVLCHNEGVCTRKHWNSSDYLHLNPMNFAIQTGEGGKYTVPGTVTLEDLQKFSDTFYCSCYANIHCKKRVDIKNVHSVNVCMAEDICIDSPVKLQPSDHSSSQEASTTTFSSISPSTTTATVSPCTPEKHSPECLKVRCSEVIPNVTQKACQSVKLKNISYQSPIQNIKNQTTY
pIC50: −log10 of the molar value.
endpoint-label: pIC50

compound CCCCC/C=C\C/C=C\CCCCCCCC(=O)OC1=C(OC(=O)CCCCCCC/C=C\C/C=C\CCCCC)C(C2COC(C)(C)O2)OC1=O (stereo not shown) , pIC50 observed: 4.52 to 4.60

----------
system: B16-F10 cells; experiment: Assay of melanin in B16-F10 cells (colorimetric, α-MSH stimulated); format: cell-based, murine; conditions: Mus musculus, B16-F10; 100 μM; 72 hours; read-out: Percentage inhibition of intracellular melanin
Task for the reader: assign each of the following compounds its reported inhibition at 100 µM.

compound CCCCCCCC/C=C\CCCCCCCC(=O)OC1=C(O)C(C2COC(C)(C)O2)OC1=O (stereo not shown) , inhibition at 100 µM observed: 49%

compound CCCCC/C=C\C/C=C\CCCCCCCC(=O)OC1=C(O)C(C2COC(C)(C)O2)OC1=O (stereo not shown) , inhibition at 100 µM observed: 78%

compound CCCCC/C=C\C/C=C\CCCCCCCC(=O)OC1=C(OC(=O)CCCCCCC/C=C\C/C=C\CCCCC)C(C2COC(C)(C)O2)OC1=O (stereo not shown) , inhibition at 100 µM observed: 71%

compound O=C1O[C@H]([C@@H](O)CO)C(O)=C1O , inhibition at 100 µM observed: 22%
